biological target: OsWRKY34 (Oryza sativa, UniProt Q0JBA9 1-250); assay: protein-binding microarray (RPBM); PBS, 2% BSA, 51.3 ng/ul salmon testes DNA, 50 uM zinc acetate, 200 nM TF, 25 C, 1 h; high values mean tight binding; conditions: protein: recombinant; tags: N-terminal polyhistidine and DsRed monomer fusion (pET32a); label: CyDye5-dUTP incorporated in the synthesized complementary strand; 3' TTTTT single-stranded linker to array surface; dsDNA, one strand shown
Sequence (Q0JBA9 entry or part of it): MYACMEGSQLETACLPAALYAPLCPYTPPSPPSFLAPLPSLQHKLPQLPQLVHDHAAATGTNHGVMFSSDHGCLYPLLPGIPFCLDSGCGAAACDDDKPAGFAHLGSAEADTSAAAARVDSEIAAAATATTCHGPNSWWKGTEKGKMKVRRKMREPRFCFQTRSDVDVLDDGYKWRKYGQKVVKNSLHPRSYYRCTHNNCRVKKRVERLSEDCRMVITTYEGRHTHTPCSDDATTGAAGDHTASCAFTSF
The full ranking holds about 68,000 sequences; the median of “fluorescence intensity (a.u.)” is about 9,100, and the highest 2% start at about 16,000. The list comes from a sample in which the highest values are over-represented; it also holds close analogues and randomly drawn sequences.
MEASURED_METRIC: binding signal

INPUT: Find the recorded binding signal belonging to TTCTTTCTTTTTTGGCGGGGACTACTCTTTACTTGAACCTCGGAGTCACCTAGTGCAG and report it.
OUTPUT: 12400 fluorescence intensity (a.u.)

INPUT: Find the recorded binding signal belonging to ATTTCTTGGAGACCGTTGACTCCTCTCTCTCTATTTCCATCGGAGTCACCTAGTGCAG and report it.
OUTPUT: 12400 fluorescence intensity (a.u.)

INPUT: Find the recorded binding signal belonging to CTTTCTTTCTTTCTTTCTTCTTTTTTTTCTTTTTTTTTTGCGGAGTCACCTAGTGCAG and report it.
OUTPUT: 8640 fluorescence intensity (a.u.)

INPUT: Find the recorded binding signal belonging to TGGTTTTATGTGTGAGTTGGGGTAGTGGCGTTGGTAGGTTCGGAGTCACCTAGTGCAG and report it.
OUTPUT: 11700 fluorescence intensity (a.u.)

INPUT: Find the recorded binding signal belonging to TGTGAGTAGTTTGTGGTTGGGAGTGTAACGGGTGGGGTGGCGGAGTCACCTAGTGCAG and report it.
OUTPUT: 16900 fluorescence intensity (a.u.)

* * *

molecular target: OsWRKY34 (Oryza sativa, UniProt Q0JBA9 1-250); test: protein-binding microarray (RPBM); PBS, 2% BSA, 51.3 ng/ul salmon testes DNA, 50 uM zinc acetate, 200 nM TF, 25 C, 1 h; high values mean tight binding; details: protein: recombinant; tags: N-terminal polyhistidine and DsRed monomer fusion (pET32a); label: CyDye5-dUTP incorporated in the synthesized complementary strand; 3' TTTTT single-stranded linker to array surface; dsDNA, one strand shown
The full ranking holds about 68,000 sequences; the median of “fluorescence intensity (a.u.)” is about 9,100, and the highest 2% start at about 16,000. What follows is part of a selection rich in the highest values, with near analogues and random picks from the rest.
Please provide measured binding signal for the entries that follow.

INPUT: Find the recorded binding signal belonging to GGAATCTGGGAGGTGGGTGGGCCCCACGGCGGAGACTCCGCGGAGTCACCTAGTGCAG and report it.
OUTPUT: 17200 fluorescence intensity (a.u.)

INPUT: Find the recorded binding signal belonging to GCCTCGATCGCGGCGGTGGCGGTGGGGAGGGGAGCGCACCCGGAGTCACCTAGTGCAG and report it.
OUTPUT: 19000 fluorescence intensity (a.u.)

INPUT: Find the recorded binding signal belonging to TTTTCTCCTTTCGCGTTGCGTCCGCGATCCGATCGATCGACGGAGTCACCTAGTGCAG and report it.
OUTPUT: 9560 fluorescence intensity (a.u.)

INPUT: Find the recorded binding signal belonging to AACCCATTTTCTGCTCTGCTCTTGCTTTGCTTTGCATTTCCGGAGTCACCTAGTGCAG and report it.
OUTPUT: 14000 fluorescence intensity (a.u.)

INPUT: Find the recorded binding signal belonging to GCACCCACAGTTCCATGAGACACATAGAAGTTTTACACAACGGAGTCACCTAGTGCAG and report it.
OUTPUT: 10600 fluorescence intensity (a.u.)

INPUT: Find the recorded binding signal belonging to GTCCCGGGCACCGACCACGATCCGTTCCCGCCACACAAACCGGAGTCACCTAGTGCAG and report it.
OUTPUT: 8080 fluorescence intensity (a.u.)

INPUT: Find the recorded binding signal belonging to GCGGCCGGCCGAGGGGTGGGAGCCGTCCGATCGCGGCGCGCGGAGTCACCTAGTGCAG and report it.
OUTPUT: 8550 fluorescence intensity (a.u.)

INPUT: Find the recorded binding signal belonging to CCACCTGCCAGCCTGTACCCACCCCTCCCTACTGTTATACCGGAGTCACCTAGTGCAG and report it.
OUTPUT: 8640 fluorescence intensity (a.u.)

INPUT: Find the recorded binding signal belonging to CGACAGTTTCCTTTTTCGCGACCACTTCCGATCTCCTAAACGGAGTCACCTAGTGCAG and report it.
OUTPUT: 17000 fluorescence intensity (a.u.)
